From: PubChem BioAssay AID1745844

# Tested on: rodent lifetime carcinogenesis bioassay, tumor incidence TD50
# test_summary: carcinogenic potency in animals, long-term in vivo studies, CPDB compilation (AID 1745844)
# condition_info: rat; strain Fischer 344; males; by gavage; site: colon; lesion: one or several types; types not named; dosed 30 weeks; study length 65 weeks
measurement_type: TD50

Ask: Endpoint output: TD50 of CN=[N+](C)[O-] . Value?
Result: 0.102 mg/kg/day

----------
# Test system: rodent lifetime carcinogenesis bioassay, tumor incidence TD50
# test_summary: carcinogenic potency in animals, long-term in vivo studies, CPDB compilation (AID 1745844)
# condition_info: rat; strain Fischer 344; males; in feed; site: urinary bladder; lesion: papilloma; dosed 72 weeks; study length 93 weeks
measurement_type: TD50

Ask: Endpoint output: TD50 of Cc1ccccc1N=O . Value?
Result: 78.8 mg/kg/day
